The measured values listed here are drawn from patent US20260274955A1.

- study_system: T1, anti-CD28 Fab (SEQ ID NOs: 202, 203)
- T1 construct: biotinylated and captured on neutravidin coated plates in the phage ELISA
- T1 sequence (VH, as listed by the source, chain 1 of 2): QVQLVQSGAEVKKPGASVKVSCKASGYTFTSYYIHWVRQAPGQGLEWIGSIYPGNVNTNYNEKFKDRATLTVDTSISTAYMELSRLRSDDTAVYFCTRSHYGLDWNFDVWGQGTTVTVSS
- T1 sequence (VL, as listed by the source, chain 2 of 2): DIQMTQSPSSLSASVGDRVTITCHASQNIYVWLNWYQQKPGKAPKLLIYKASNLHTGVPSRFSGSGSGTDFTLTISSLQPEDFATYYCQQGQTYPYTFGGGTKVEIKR
- measurement_description: phage ELISA on captured Fab, wells pre-incubated with CD28 antigen (competitor);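 note: clonal phage ELISA with wells pretreated with CD28 plus blocking buffer before phage addition, bound phage detected by HRP-linked anti-M13 antibody, reference wells got blocking buffer only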
Kindly supply the reported Anti-CD28 Fab signal in the presence of CD28 values for the records listed here.
Give your answer as a number; write no unit.

The reported Anti-CD28 Fab signal in the presence of CD28 of the binder YCDGHSVEYMEKCL (on phage, pIII fusion) [Phage-476] was 0.09

// field: Anti-CD28 Fab signal in the presence of CD28; key: YCAGHLPVYMDKCL (on phage, pIII fusion) [Phage-557] ; value = 0.08

Please fill in: Anti-CD28 Fab signal in the presence of CD28 reported for YCDGHAQEYMDKCL (on phage, pIII fusion) [Phage-500] = 0.08

The binder listed as YCAGHVAEYMAKCL (on phage, pIII fusion) [Phage-483] shows Anti-CD28 Fab signal in the presence of CD28 equal to 0.06

// sample YCEGHTAEHMQKCL (on phage, pIII fusion) [Phage-482] , its Anti-CD28 Fab signal in the presence of CD28 was 0.05

YCEGHSAMYIWKCL (on phage, pIII fusion) [Phage-558] yielded Anti-CD28 Fab signal in the presence of CD28 of 0.1

# Anti-CD28 Fab signal in the presence of CD28 of YCEGHLGIYMTKCL (on phage, pIII fusion) [Phage-530] = 0.08

Anti-CD28 Fab signal in the presence of CD28 reading for YCDGHIGLYLNKCL (on phage, pIII fusion) [Phage-463] : 0.06
